pIC50 values, listed per item
Biological target: CK1δ (Homo sapiens (Human), UniProt P48730)
Sequence (P48730 whole entry): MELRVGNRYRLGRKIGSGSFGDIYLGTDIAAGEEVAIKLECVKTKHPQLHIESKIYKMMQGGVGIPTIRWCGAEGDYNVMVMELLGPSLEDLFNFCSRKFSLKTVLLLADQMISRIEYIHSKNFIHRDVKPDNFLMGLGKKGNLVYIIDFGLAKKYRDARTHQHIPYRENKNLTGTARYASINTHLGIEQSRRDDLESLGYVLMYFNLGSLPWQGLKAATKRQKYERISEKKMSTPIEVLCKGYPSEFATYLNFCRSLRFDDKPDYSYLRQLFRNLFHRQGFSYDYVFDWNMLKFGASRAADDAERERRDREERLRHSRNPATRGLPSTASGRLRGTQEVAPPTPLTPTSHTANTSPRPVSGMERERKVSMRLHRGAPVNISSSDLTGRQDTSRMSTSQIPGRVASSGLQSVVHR
Counter-ions that a name gives are not always drawn.
For clarity, pIC50 is expressed as the negative log10 of concentration in mol/L.

Cn1cc(-c2ccc3nc(NC(=O)c4cc(O)ncn4)cn3n2)c(-c2ccc(F)cc2)n1
8.03
Cn1nc(-c2ccc(F)cc2)c(-c2ccc3nc(NC(=O)c4ccncc4)cn3n2)c1N1CCN(C(=O)CC(F)(F)F)CC1
9.22
Cn1cc(-c2ccc3nc(NC(=O)C4CCC4)cn3n2)c(-c2ccc(F)cc2)n1
8.15
Cc1nc(-c2cccnc2)sc1C(=O)Nc1cn2nc(-c3c(-c4ccc(F)cc4)nn(C)c3N3CCOCC3)ccc2n1
9.30
Cn1nc(-c2ccc(F)cc2)c(-c2ccc3nc(NC(=O)c4ccnc(N5CCOCC5)c4)cn3n2)c1N1CCN(CCC(F)(F)F)CC1
8.80

Q: Give pIC50 for COc1c(F)cc(C(=O)Nc2cn3nc(-c4cn(C)nc4-c4ccc(F)cc4)ccc3n2)cc1F
A: 8.24

Q: Give pIC50 for Cn1nc(-c2ccc(F)cc2)c(-c2ccc3nc(NC(=O)c4ccnc(F)c4)cn3n2)c1-c1ccncc1
A: 9.30

Q: Give pIC50 for Cc1nc(-c2ccncc2)sc1C(=O)Nc1cn2nc(-c3c(-c4ccc(F)cc4)nn(C)c3C3CCOCC3)ccc2n1
A: 9.52

Q: Give pIC50 for Cn1nc(-c2ccc(F)cc2)c(-c2ccc3nc(NC(=O)c4ccncc4)cn3n2)c1C1CCN(Cc2ccon2)CC1
A: 8.85

Q: Give pIC50 for Cn1cc(-c2ccc3nc(NC(=O)C4CCOCC4)cn3n2)c(-c2ccc(F)cc2)n1
A: 8.27

Q: Give pIC50 for Cn1cc(-c2ccc3nc(NC(=O)c4ccncc4)c(-c4ccncc4)n3n2)c(-c2ccc(F)cc2)n1 [Compound 194, TFA]
A: 7.01

Q: Give pIC50 for Cn1cc(-c2ccc3nc(NC(=O)c4cc(F)ccc4F)cn3n2)c(-c2ccc(F)cc2)n1
A: 8.20

Q: Give pIC50 for Cc1nc(-c2cccnc2)sc1C(=O)Nc1cn2nc(-c3c(-c4ccc(F)cc4)nn(C)c3C3CCN(Cc4ccon4)CC3)ccc2n1
A: 9.00

Q: Give pIC50 for Cc1nc(C(F)(F)F)ccc1C(=O)Nc1cn2nc(-c3cn(C)nc3-c3ccc(F)cc3)ccc2n1
A: 8.19

Q: Give pIC50 for Cc1nc(-c2ccccc2)sc1C(=O)Nc1cn2nc(-c3cn(C)nc3-c3ccc(F)cc3)ccc2n1
A: 8.08

Q: Give pIC50 for O=C(Nc1cn2nc(-c3cn(C4CC4)nc3-c3ccc(F)cc3)ccc2n1)c1ccnc(F)c1
A: 8.49

Q: Give pIC50 for Cc1nc(-c2ccccn2)sc1C(=O)Nc1cn2nc(-c3cn(C4CC4)nc3-c3ccc(F)cc3)ccc2n1
A: 8.26

Q: Give pIC50 for CN1CCN(c2c(-c3ccc4nc(NC(=O)c5ccnc(F)c5)cn4n3)c(-c3ccc(F)cc3)nn2C)CC1
A: 9.15

Q: Give pIC50 for Cn1cc(-c2ccc3nc(NC(=O)c4nccs4)cn3n2)c(-c2ccc(F)cc2)n1
A: 7.52

Q: Give pIC50 for COc1ccncc1C(=O)Nc1cn2nc(-c3cn(C)nc3-c3ccc(F)cc3)ccc2n1
A: 8.15

Q: Give pIC50 for Cc1nc(-c2cccnc2)sc1C(=O)Nc1cn2nc(-c3c(-c4ccc(F)cc4)nn(C)c3C3CCN(CC(N)=O)CC3)ccc2n1
A: 9.70
